Molecular target: DNA dC->dU-editing enzyme APOBEC-3G (Homo sapiens) (UniProt Q9HC16)
Sequence (Q9HC16 whole entry, looked up): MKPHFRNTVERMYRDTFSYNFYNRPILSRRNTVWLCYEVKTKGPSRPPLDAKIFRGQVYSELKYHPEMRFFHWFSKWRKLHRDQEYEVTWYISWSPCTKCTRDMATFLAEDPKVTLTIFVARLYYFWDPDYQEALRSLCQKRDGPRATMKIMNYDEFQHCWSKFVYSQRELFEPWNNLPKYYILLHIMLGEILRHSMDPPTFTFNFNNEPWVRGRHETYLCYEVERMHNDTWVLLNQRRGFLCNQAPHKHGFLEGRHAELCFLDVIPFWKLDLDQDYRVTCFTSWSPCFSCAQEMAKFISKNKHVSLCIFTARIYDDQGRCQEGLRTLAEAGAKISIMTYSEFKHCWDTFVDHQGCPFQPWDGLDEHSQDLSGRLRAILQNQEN
Assay: qHTS for inhibitors of Vif-A3G interactions: Cherry picks counterscreen;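 note: potency is the fitted concentration of half-maximal effect; hits raise yellow fluorescence by blocking Vif-driven A3G-eYFP degradation; nearly all actives have a fitted effect of over 70% in size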
Details: HeLa A3G-eYFP + Vif, eYFP fluorescence, 24 h
Source text: The recent discovery and characterization of host restriction factors, which provide a potent defense to invading retroviruses, has provided new targets for antiviral drug development. […] In the presence of an inhibitor, it is expected that Vif will be unable to degrade A3G-eYFP and/or A3F-eYFP, resulting in an increase in yellow fluorescence. […]
The campaign covered roughly 2,100 compounds. About 1,100 (52%) were called active. About 27% were inconclusive and are not listed. The set was probably picked from earlier hits. This is one part of the list.
ASSAY READOUT: Potency

Retrieve Potency on DNA dC->dU-editing enzyme APOBEC-3G (Homo sapiens) (UniProt Q9HC16); query COC(=O)C1=C(Nc2ccc(C)cc2)C=C(C)C(C(=O)OC)C1c1cccc(OC)c1 (centres undefined)
11.2 µM (active)

Retrieve Potency on DNA dC->dU-editing enzyme APOBEC-3G (Homo sapiens) (UniProt Q9HC16); query N#Cc1c(-c2ccccc2F)cc(C2CC2)nc1SCC(=O)c1cccs1
14 µM (active)

Retrieve Potency on DNA dC->dU-editing enzyme APOBEC-3G (Homo sapiens) (UniProt Q9HC16); query CCCCN(CCC(=O)O)c1ccc(/C=C/c2ccnc3ccccc23)cc1
18.4 µM (active)

Retrieve Potency on DNA dC->dU-editing enzyme APOBEC-3G (Homo sapiens) (UniProt Q9HC16); query Cc1c(C(=O)Nc2cccnc2)oc2ccc(Br)cc12
12.5 µM (active)

Retrieve Potency on DNA dC->dU-editing enzyme APOBEC-3G (Homo sapiens) (UniProt Q9HC16); query CC(C)(C)c1ccc(C(=O)C[n+]2cccc3cc(Cl)ccc32)cc1
18.4 µM (active)

Retrieve Potency on DNA dC->dU-editing enzyme APOBEC-3G (Homo sapiens) (UniProt Q9HC16); query Cc1nc2c3cc(F)ccc3n(Cc3ccccc3)c2s1
7.04 µM (active)

Retrieve Potency on DNA dC->dU-editing enzyme APOBEC-3G (Homo sapiens) (UniProt Q9HC16); query O=C(C[n+]1cccc2cc(Cl)ccc21)c1ccc(I)cc1
18.4 µM (active)

Retrieve Potency on DNA dC->dU-editing enzyme APOBEC-3G (Homo sapiens) (UniProt Q9HC16); query COc1cc(/C=C2/SC(=S)N(CCC(=O)Nc3ccccc3)C2=O)cc(OC)c1OC
20.6 µM (active)

Retrieve Potency on DNA dC->dU-editing enzyme APOBEC-3G (Homo sapiens) (UniProt Q9HC16); query COc1ccc(/C=c2\s/c(=C/C(=O)c3ccc(C)cc3)[nH]c2=O)c(OC)c1
20.6 µM (active)

Retrieve Potency on DNA dC->dU-editing enzyme APOBEC-3G (Homo sapiens) (UniProt Q9HC16); query COc1ccc2c(c1)c1nc3ccccc3nc1n2Cc1ccc(OC)c(OC)c1
25.9 µM (active)

Retrieve Potency on DNA dC->dU-editing enzyme APOBEC-3G (Homo sapiens) (UniProt Q9HC16); query CCOc1ccc(S(=O)(=O)NCc2ccccn2)cc1NC(=O)c1ccccc1
3.96 µM (active)

Retrieve Potency on DNA dC->dU-editing enzyme APOBEC-3G (Homo sapiens) (UniProt Q9HC16); query CN1/C(=C\C=C2/SC(=S)NC2=O)C(C)(C)c2ccccc21
3.53 µM (active)

Retrieve Potency on DNA dC->dU-editing enzyme APOBEC-3G (Homo sapiens) (UniProt Q9HC16); query O=C(C[n+]1cccc2cc(Cl)ccc21)c1ccc2ccccc2c1
23.1 µM (active)

Retrieve Potency on DNA dC->dU-editing enzyme APOBEC-3G (Homo sapiens) (UniProt Q9HC16); query N=c1n(CC(=O)c2ccc([N+](=O)[O-])cc2)c2ccccc2n1Cc1ccccc1
20.6 µM (active)

Retrieve Potency on DNA dC->dU-editing enzyme APOBEC-3G (Homo sapiens) (UniProt Q9HC16); query Cc1cc(/C=C2\SC(=S)N(C)C2=O)c(C)n1-c1ccccc1O
18.4 µM (active)

Retrieve Potency on DNA dC->dU-editing enzyme APOBEC-3G (Homo sapiens) (UniProt Q9HC16); query CN(C)c1ccc(C2C=C(c3ccc(Cl)cc3OC(F)F)Nc3ncnn32)cc1 (centres undefined)
15.8 µM (active)

Retrieve Potency on DNA dC->dU-editing enzyme APOBEC-3G (Homo sapiens) (UniProt Q9HC16); query N#CC1=C(N)Oc2cc(N)ccc2C1c1ccccc1 (centres undefined)
15.8 µM (active)

Retrieve Potency on DNA dC->dU-editing enzyme APOBEC-3G (Homo sapiens) (UniProt Q9HC16); query Cc1nc(NC(=O)/C=C/c2ccco2)sc1C
6.27 µM (active)

Retrieve Potency on DNA dC->dU-editing enzyme APOBEC-3G (Homo sapiens) (UniProt Q9HC16); query Cc1ccnc(N/C=C(\C#N)c2nc(-c3cccc(Br)c3)cs2)c1
11.2 µM (active)

Retrieve Potency on DNA dC->dU-editing enzyme APOBEC-3G (Homo sapiens) (UniProt Q9HC16); query Cc1cc(/C=C2\SC(=S)N(C)C2=O)c(C)n1-c1ccc(O)cc1
20.6 µM (active)

Retrieve Potency on DNA dC->dU-editing enzyme APOBEC-3G (Homo sapiens) (UniProt Q9HC16); query Cn1c(=O)c2cc(NC(=O)NCc3ccccc3)ccc2n1C/C=C/c1ccccc1
15.8 µM (active)

Retrieve Potency on DNA dC->dU-editing enzyme APOBEC-3G (Homo sapiens) (UniProt Q9HC16); query CCN1CCN(c2c(/C=C3\SC(=S)N(Cc4ccco4)C3=O)c(C)c(C#N)c(=O)n2C)CC1
20.6 µM (active)

Retrieve Potency on DNA dC->dU-editing enzyme APOBEC-3G (Homo sapiens) (UniProt Q9HC16); query COc1cc(OC)cc(C(=O)N2CC(=O)Nc3ccccc32)c1
3.53 µM (active)

Retrieve Potency on DNA dC->dU-editing enzyme APOBEC-3G (Homo sapiens) (UniProt Q9HC16); query NC(=O)c1ccccc1NC(=S)NC(=O)CCc1ccccc1
5.59 µM (active)

Retrieve Potency on DNA dC->dU-editing enzyme APOBEC-3G (Homo sapiens) (UniProt Q9HC16); query COc1ccc(/C=N/NC(=O)c2cc(OC)c(OC)c(OC)c2)cc1CN1CCc2cc(OC)c(OC)cc2C1C (centres undefined)
12.5 µM (active)

Retrieve Potency on DNA dC->dU-editing enzyme APOBEC-3G (Homo sapiens) (UniProt Q9HC16); query COc1cc(N2CCCC2)c(OC)cc1/C=C(/C#N)c1ccc(Br)cc1
1.64 µM (active)

Retrieve Potency on DNA dC->dU-editing enzyme APOBEC-3G (Homo sapiens) (UniProt Q9HC16); query CCc1ccc(C2=NN(S(C)(=O)=O)C(c3cccs3)C2)cc1 (centres undefined)
14 µM (active)

Retrieve Potency on DNA dC->dU-editing enzyme APOBEC-3G (Homo sapiens) (UniProt Q9HC16); query CNc1ccc(/C=C/c2ccnc3ccccc23)cc1
16.4 µM (active)

Retrieve Potency on DNA dC->dU-editing enzyme APOBEC-3G (Homo sapiens) (UniProt Q9HC16); query CCc1ccc(N=Nc2ccc(O)c3[nH]cnc23)cc1
7.31 µM (active)

Retrieve Potency on DNA dC->dU-editing enzyme APOBEC-3G (Homo sapiens) (UniProt Q9HC16); query C=CCN1C(=O)/C(=C/c2ccc(O)c(OC)c2)S/C1=N/c1nccs1
4.61 µM (active)

Retrieve Potency on DNA dC->dU-editing enzyme APOBEC-3G (Homo sapiens) (UniProt Q9HC16); query N#CC1=C(N)Oc2cc(N)ccc2C1c1cccc(F)c1 (centres undefined)
4.98 µM (active)

Retrieve Potency on DNA dC->dU-editing enzyme APOBEC-3G (Homo sapiens) (UniProt Q9HC16); query O=C(Nc1ccc2c(c1)OCCO2)C(=O)c1c[nH]c2ccccc12
6.27 µM (active)

Retrieve Potency on DNA dC->dU-editing enzyme APOBEC-3G (Homo sapiens) (UniProt Q9HC16); query CCCN1CCC(=NNc2ccc(S(=O)(=O)N3CCOCC3)cc2[N+](=O)[O-])CC1
14 µM (active)

Retrieve Potency on DNA dC->dU-editing enzyme APOBEC-3G (Homo sapiens) (UniProt Q9HC16); query COc1cc(N2CCCC2)c(OC)cc1/C=C(/C#N)c1ccc(F)cc1
8.2 µM (active)

* * *

molecular target: DNA dC->dU-editing enzyme APOBEC-3G (Homo sapiens) (UniProt Q9HC16); assay: qHTS for inhibitors of Vif-A3G interactions: Cherry picks counterscreen; settings: HeLa A3G-eYFP + Vif (tagged APOBEC3G with the HIV-1 protein that degrades it), eYFP fluorescence, 24 h;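 note: potency is the fitted concentration of half-maximal effect; hits raise yellow fluorescence by blocking Vif-driven A3G-eYFP degradation; nearly all actives have a fitted effect of over 70% in size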
About 1,100 (52%) of roughly 2,100 compounds were called active. Roughly 27% stayed inconclusive and do not appear here. The set was probably picked from earlier hits. The list shows a part of the results.
ASSAY READOUT: Potency

Consider the molecule Cn1cc(/C=C2\SC(=S)N(NC(=O)c3cccc(Cl)c3)C2=O)c2ccccc21 and give its recorded Potency.
8.2 µM (active)

Consider the molecule Nc1c(C(=O)N/N=C/c2ccccc2Cl)oc2nc(-c3ccccc3)cc(-c3ccco3)c12 and give its recorded Potency.
2.91 µM (active)

Consider the molecule Cc1cc(C)c2cc3c(N)c(C(=O)Nc4c(C)[nH]c(=O)[nH]c4=O)sc3nc2c1 and give its recorded Potency.
11.6 µM (active)

Consider the molecule CCSc1nnc(-c2sc3nnc(-c4ccccc4)c(-c4ccccc4)c3c2N)o1 and give its recorded Potency.
4.61 µM (active)

Consider the molecule Cc1cccc(N2CCN(Cc3cn(C)nc3-c3ccccc3F)CC2)n1 and give its recorded Potency.
5.59 µM (active)

Consider the molecule CS(=O)(=O)Nc1ccc(C2=NN(S(C)(=O)=O)C(c3ccc4c(c3)OCO4)C2)cc1 (stereo not drawn) and give its recorded Potency.
14 µM (active)

Consider the molecule COc1ccccc1N=C(C)C1=C(O)CC(c2ccccc2)CC1=O (stereo not drawn) and give its recorded Potency.
0.559 µM (active)

Consider the molecule Cc1cc(NC(=O)COC(=O)c2ccc(S(=O)(=O)N3CCCc4ccccc43)cc2)no1 and give its recorded Potency.
4.44 µM (active)
